study-system: T1, cynomolgus monkey BCMA (cynomolgus monkey, UniProt A0A2K5UD97 1-53)
T1 construct: Soluble analyte in SPR; construct not described; also called cyBCMA; Cyno BCMA
T1 sequence (A0A2K5UD97 entry or part of it): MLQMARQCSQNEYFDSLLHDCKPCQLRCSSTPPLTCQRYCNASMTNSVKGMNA
assay-summary: SPR, IgG on chip, cyBCMA analyte, 37C
# label = 1 (yes) if T½ >= 3 min else 0 (no)

{"binder": "L3.PY/L1.PH/H2.HA (antibody, V domains shown, IgG) VH: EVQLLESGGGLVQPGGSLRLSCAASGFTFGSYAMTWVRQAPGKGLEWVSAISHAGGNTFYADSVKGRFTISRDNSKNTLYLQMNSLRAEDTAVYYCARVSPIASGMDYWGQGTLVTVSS VL: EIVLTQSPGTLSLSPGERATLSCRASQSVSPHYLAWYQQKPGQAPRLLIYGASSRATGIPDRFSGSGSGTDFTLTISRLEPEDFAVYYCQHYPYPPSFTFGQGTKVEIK", "category-label": "0 (no)"}
{"binder": "L3.PY/L3.KY/H3.TAQ (antibody, V domains shown, IgG) VH: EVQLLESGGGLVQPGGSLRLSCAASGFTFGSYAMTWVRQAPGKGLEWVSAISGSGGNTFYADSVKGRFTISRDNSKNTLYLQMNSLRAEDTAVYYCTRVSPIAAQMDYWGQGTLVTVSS VL: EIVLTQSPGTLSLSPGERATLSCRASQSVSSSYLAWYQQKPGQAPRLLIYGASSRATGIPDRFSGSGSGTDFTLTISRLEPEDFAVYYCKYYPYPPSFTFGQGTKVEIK", "category-label": "1 (yes)"}
{"binder": "L3.PY/L1.FF/H3.YA (antibody, V domains shown, IgG) VH: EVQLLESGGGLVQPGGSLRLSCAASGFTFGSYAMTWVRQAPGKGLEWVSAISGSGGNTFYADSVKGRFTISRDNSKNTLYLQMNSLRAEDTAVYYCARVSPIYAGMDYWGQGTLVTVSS VL: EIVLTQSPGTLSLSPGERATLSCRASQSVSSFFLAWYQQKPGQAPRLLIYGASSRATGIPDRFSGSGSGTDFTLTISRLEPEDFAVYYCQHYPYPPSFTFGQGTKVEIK", "category-label": "0 (no)"}
{"binder": "L3.PY/L1.FF/H2.LT (antibody, V domains shown, IgG) VH: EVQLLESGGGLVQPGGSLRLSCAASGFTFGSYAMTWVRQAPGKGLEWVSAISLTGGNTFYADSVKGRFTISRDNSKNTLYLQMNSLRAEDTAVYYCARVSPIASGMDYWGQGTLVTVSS VL: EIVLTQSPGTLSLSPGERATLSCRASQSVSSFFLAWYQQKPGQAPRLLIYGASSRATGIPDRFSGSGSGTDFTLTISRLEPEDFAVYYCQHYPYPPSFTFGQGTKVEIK", "category-label": "1 (yes)"}
{"binder": "L3.PY/L1.FF/H2.QR (antibody, V domains shown, IgG) VH: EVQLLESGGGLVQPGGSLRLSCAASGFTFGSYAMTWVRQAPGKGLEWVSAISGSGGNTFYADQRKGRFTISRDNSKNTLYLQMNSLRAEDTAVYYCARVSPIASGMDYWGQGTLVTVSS VL: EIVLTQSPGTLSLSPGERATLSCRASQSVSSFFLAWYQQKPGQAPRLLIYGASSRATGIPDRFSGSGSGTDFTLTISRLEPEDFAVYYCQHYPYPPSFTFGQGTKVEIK", "category-label": "0 (no)"}

Sourced from patent US20190241669A1
